- PROCEDURE_TEXT: in vivo
- RUN_PARAMETERS: male, NMRI, mouse, po, 200 mg/kg/day
OBSERVABLE: Cmax (ng/mL)
Unit ng/mL implied. Number only.

Query: What value of Cmax has been reported for the following compound? CC1CS(=O)(=O)CCN1/N=C/c1ccc([N+](=O)[O-])o1 (stereo not shown)
Result: 9250

====

- PROCEDURE_TEXT: Mouse single-dose plasma pharmacokinetics
- Format: in vivo
- RUN_PARAMETERS: female, NMRI, mouse; plasma, fexinidazole 25 mg/kg po
OBSERVABLE: Tmax (min)
Unit min implied. Number only.

Cn1c([N+](=O)[O-])cnc1COc1ccc(S(C)(=O)=O)cc1
240
Cn1c([N+](=O)[O-])cnc1COc1ccc([S+](C)[O-])cc1 (stereo not drawn) [Fexinidazole sulfoxide]
30

Here is another compound to look at.
Query: What value of Tmax has been reported for the following compound? CSc1ccc(OCc2ncc([N+](=O)[O-])n2C)cc1
Result: 15
